- TARGET OF ASSAY: Tumor Necrosis Factor-alpha (TNF-α)
- Sequence (P01375 77-233): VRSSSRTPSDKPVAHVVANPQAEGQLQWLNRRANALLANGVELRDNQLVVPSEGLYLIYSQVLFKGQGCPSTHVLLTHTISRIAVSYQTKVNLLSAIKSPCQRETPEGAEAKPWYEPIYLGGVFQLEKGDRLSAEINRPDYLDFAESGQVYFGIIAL
- EXPERIMENTAL PROTOCOL: SPR equilibrium; against the TNF1 lead
Reported Kd Fold-Change Relative to Lead values are given for each entry in this list.
MEASUREMENT NAME: Kd Fold-Change Relative to Lead (fold)

1) FERYPLMMPWKFLQSRQGSC (modifications not checked) [TNF1 D4Y+S11K double mutant] ... 17
2) FERDPLMMPWKFLQSRQGSC (modifications not checked) [TNF1 S11K point-mutant] ... 3.9
3) FERSYLKMPWKFLQSRQGSC (modifications not checked) [TNF1-opt (D4S+P5Y+M7K+S11K quadruple mutant of TNF1)] ... 100
4) FERYPLKMPWSFLQSRQGSC (modifications not checked) [TNF1 D4Y+M7K double mutant] ... 9.4
5) FERDYLKMPWSFLQSRQGSC (modifications not checked) [TNF1 P5Y+M7K double mutant] ... 5.8
6) FERSYLKMPWSFLQSRQGSC (modifications not checked) [TNF1 D4S+P5Y+M7K triple mutant] ... 11
7) FERDYLMMPWSFLQSRQGSC (modifications not checked) [TNF1 P5Y point-mutant] ... 2.7
